Measurement Notes: growth suppression of beta-catenin knockout HCT116, pilot screen, human colon tumor cells (AID 823);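 note: 0% = wells killed by 20 µM Hyamine and 100% = untreated DMSO cell wells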
Reported Conditions: CellTiter-Glo, 60 h, at 10 µM
Records with an inconclusive call do not appear. The source made the active and inactive calls.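 Rule for the calls: active = cell viability at or below a set limit in both duplicate runs, the limit being the all-compound median minus 4 SD (cut at about 23% in these data, passing the limit was not always enough); inconclusive = no clear call, values can overlap the other calls; inactive = the rest.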
Hello, when you answer, please use one of the following outcomes: 1.0 for active, 0.0 for inactive

Past entries and their recorded results:
{"columns": ["Compound", "Label"],
 "data": [
  ["CCOC(=O)CSC1=C(C#N)C(c2ccc(Cl)cc2)CC(=O)N1 (configuration not stated)", 0.0],
  ["Cc1sc2ncnc(NCc3ccco3)c2c1C", 0.0]
]}

input: Call for entry COc1ccc2oc(-c3ccccc3)c(C(=O)N3CCOCC3)c2c1 :
output: 0.0

input: Call for entry Cc1cc(C)c(S(=O)(=O)N2CCN(C)CC2)c(C)c1 :
output: 0.0

input: Call for entry Cc1c(C#N)c2ccccc2n1CC(=O)NCCc1c[nH]c2ccccc12 :
output: 0.0

* * *

Form field: growth inhibition (one value per entry).
Measurement Notes: OD615 S. cerevisiae growth inhibition, permissive medium, pilot counter-assay, permissive growth control for S. cerevisiae lifespan shortening project (AID 705)
Reported Conditions: OD615, 24 h, at 10 µM, hits give high values
Supply the numeric figure in %, leaving out any unit text.

These solved cases illustrate the format of a correct answer.
{"columns": ["Compound", "Observed Result"],
 "data": [
  ["CCC(C)NC(=O)CS(=O)Cc1nc(-c2ccccc2C)oc1C (stereo not drawn)", 1.69],
  ["COc1ccc(Cl)cc1N(CC(=O)N1CCC(C)CC1)S(C)(=O)=O", 5.7],
  ["Cn1c(NC(=O)c2ccccc2C(F)(F)F)cc(=O)n(C)c1=O", -16.9],
  ["Cc1ccc(CNC(=O)c2ccc(Br)o2)cc1", -14.5],
  ["N#CC1=C(N)Oc2c(sc3ccccc23)C1c1ccco1 (stereo not drawn)", -25.7],
  ["COc1ccc(NC(=O)C2c3cc(OC)c(OC)cc3C(=O)N(C)C2c2cccnc2)cc1OC (stereo not drawn)", -1.76]
]}

input: // growth inhibition lookup, key: CNC(=O)CN1C(=O)CSc2nc(C)cc(C)c21
output: -8.87

input: // growth inhibition lookup, key: O=C(NCCCN1CCN(c2ccccc2F)CC1)C1CCC(=O)N1C1CCCC1 (stereo not drawn)
output: -13

input: // growth inhibition lookup, key: CCOC(=O)c1c(C)oc2cc(Br)c(OC(C)C(=O)OCC)cc12 (stereo not drawn)
output: -10.4

input: // growth inhibition lookup, key: COc1ccc(NC(=O)c2ccc3c(c2)n(C)c(=O)n3C)cc1
output: -9.67

input: // growth inhibition lookup, key: CCCSCCCNC(=O)Cn1cc2c(n1)CCCCC2
output: -3.9

* * *

Form field: RAM network inhibition (one value per entry).
Measurement Notes: RAM signaling pathway blockade in yeast – S. cerevisiae, Pdr1DBD-CYC8 efflux-inhibited sensitized strain, primary screen (AID 1298);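 note: 0% = DMSO untreated cells without growth and 100% = 10 µM 1-NA-PP1 full growth; higher means more yeast growth rescued from 5-FOA killing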
Reported Conditions: S. cerevisiae cbk1-as DSE1-URA3 strain, 5-FOA growth OD615, 2 d; at 50 µM; hits give high values
Active and inactive are the calls of the source.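 How the source made its calls: active means RAM network inhibition above 8.4% in each of two replicates, 3 SD over the compound average; inconclusive means above 8.4% inhibition in only one replicate; inactive means 8.4% inhibition or less in each replicate.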

{"columns": ["Compound", "RAM network inhibition"],
 "data": [
  ["CCCc1n[nH]c2c1C(=O)C(C(=O)OC)C(C)(C)C2 (stereo unspecified)", "4.78% (inactive)"],
  ["Brc1ccc(-c2nnc3sc(CNC4CCCC4)cn23)cc1", "2.6% (inactive)"],
  ["COc1ccc(Cl)cc1NC(=O)CSc1nnc(Cn2c(=O)sc3ccccc32)n1C", "7.45% (inactive)"],
  ["Cc1nc2sc(C(c3cccs3)N3CCN(Cc4ccccc4)CC3)c(O)n2n1 (stereo unspecified)", "4.97% (inactive)"],
  ["CCCC(=N)C1=C(O)CC(CC(C)SCC)CC1=O (stereo unspecified)", "-1.1% (inactive)"]
]}

input: // RAM network inhibition lookup, key: COc1cc(C2NC(=O)NC(C)=C2C(=O)OCc2ccc(C)cc2)cc(OC)c1O (stereo unspecified)
output: 0.58% (inactive)

input: // RAM network inhibition lookup, key: CCn1cc(S(=O)(=O)CC(=O)Nc2cc(C)ccc2C)c2ccccc21
output: 3.99% (inactive)

input: // RAM network inhibition lookup, key: Cc1nc2sc(C(c3cccs3)N3CCN(c4ccccc4)CC3)c(O)n2n1 (stereo unspecified)
output: 2.14% (inactive)

input: // RAM network inhibition lookup, key: CCCc1cc(C(=O)NCc2cccs2)no1
output: 0.74% (inactive)

input: // RAM network inhibition lookup, key: CCN1CCN(CCNC(=O)CS(=O)(=O)Cc2nc(-c3ccc(C)cc3)oc2C)CC1
output: 3.16% (inactive)

input: // RAM network inhibition lookup, key: CC(=O)Oc1cccc(N2C(=O)C3C(C2=O)C2C=CC3C23CC3)c1 (stereo unspecified)
output: 0.63% (inactive)

* * *

Form field: growth inhibition (one value per entry).
Measurement Notes: Restrictive medium S. cerevisiae growth inhibition, OD615, pilot screen of yeast lifespan reduction project, restrictive growth control (AID 706);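 note: modified DeaD lifespan yeast strain shifted to restrictive glucose medium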
Reported Conditions: OD615, 48 h, at 10 µM, hits give high values
Supply the numeric figure in %, leaving out any unit text.

These solved cases illustrate the format of a correct answer.
{"columns": ["Compound", "growth inhibition [%]"],
 "data": [
  ["C/C(NCCN1CCOCC1)=C(\\C#N)C(N)=O", -6.1],
  ["CC(C)(C)c1ccc(-c2cc(N)n[nH]2)cc1", 13.2]
]}

input: // growth inhibition lookup, key: CCOc1ccc2nc(N3CCCC(C(=O)N4CCN(CC)CC4)C3)sc2c1 (stereo unspecified)
output: -8.34

input: // growth inhibition lookup, key: CC(C)NS(=O)(=O)c1ccc(CCC(=O)NCc2cccnc2)cc1
output: -6.38

input: // growth inhibition lookup, key: O=C(COc1ccccc1Br)NCc1ccco1
output: 8.48

input: // growth inhibition lookup, key: CC(=O)c1ccc(NC(=O)C2CCC(C)(C(=O)O)C2(C)C)cc1 (stereo unspecified)
output: -11.9

input: // growth inhibition lookup, key: COCCn1c(=O)[nH]c2cc(C(=O)NCCN3CCN(c4ccccc4)CC3)ccc2c1=O
output: 7.77

input: // growth inhibition lookup, key: Cn1nnnc1P(=O)(c1ccccc1)c1ccccc1
output: 0.5

* * *

Measurement Notes: OD615 S. cerevisiae growth inhibition, permissive medium, pilot counter-assay, permissive growth control for S. cerevisiae lifespan shortening project (AID 705)
Reported Conditions: OD615, 24 h, at 10 µM, hits give high values
Form field: growth inhibition (one value per entry).
Supply the numeric figure in %, leaving out any unit text.

These solved cases illustrate the format of a correct answer.
{"columns": ["Compound", "Observed Result"],
 "data": [
  ["COc1ccccc1N=C(C)C1=C(O)CSC1=O", -9.17],
  ["C#CCn1c(=NC(=O)CN2C(=O)CCC2=O)sc2cccc(C)c21", -15.5],
  ["CCCCCCSc1nc2c(c(=O)[nH]c(=O)n2C)n1C", -0.55],
  ["COc1ccc(OC)c(C2CC(=O)N3CN(c4ccccc4F)CSC3=C2C#N)c1 (stereo unspecified)", 8.3]
]}

input: // growth inhibition lookup, key: O=S(=O)(NCCO)c1cccc2cccnc12
output: -8.73

input: // growth inhibition lookup, key: O=C(O)CCC(C(=O)O)n1c(O)c(C2=c3ccccc3=NC2=O)sc1=S (stereo unspecified)
output: -5.76

* * *

Form field: viability (one value per entry).
Measurement Notes: growth suppression of beta-catenin knockout HCT116, pilot screen, human colon tumor cells (AID 823);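 note: 0% = wells killed by 20 µM Hyamine and 100% = untreated DMSO cell wells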
Reported Conditions: CellTiter-Glo, 60 h, at 10 µM, hits give low values
Records with an inconclusive call do not appear.
Supply the numeric figure in %, leaving out any unit text.

{"columns": ["Compound", "Unit Of Measure", "Observed Result"],
 "data": [
  ["CC(=O)Cc1nsc(NC(=O)C2Cc3ccccc3C(=O)O2)n1 (stereo unspecified)", "%", 102],
  ["CN1CCN(C(=O)C2CCC(CNS(=O)(=O)c3cccc4cccnc34)CC2)CC1 (stereo unspecified)", "%", 99],
  ["O=C1c2ccccc2-c2ncnc3c(N4CCOCC4)cc(N4CCOCC4)c1c23", "%", 79.2],
  ["CC(=NCc1ccccc1)C1=C(O)COC1=O", "%", 100],
  ["CCOCCn1c(SCc2ccccc2)nc2c1c(=O)[nH]c(=O)n2C", "%", 104]
]}

Next compound, viability to be filled in.
input: // viability lookup, key: Cc1ccc(-c2ccc(CCC(=O)O)n2CC(=O)O)cc1
output: 98.7

* * *

Measurement Notes: OD615 S. cerevisiae growth inhibition, permissive medium, pilot counter-assay, permissive growth control for S. cerevisiae lifespan shortening project (AID 705)
Reported Conditions: OD615, 24 h, at 10 µM, hits give high values
Quantity Name: growth inhibition (%)
Supply the numeric figure in %, leaving out any unit text.

These solved cases illustrate the format of a correct answer.
{"columns": ["Molecule", "Quantity Name", "Observed Result"],
 "data": [
  ["CCN(c1ccccc1)S(=O)(=O)c1ccc(N)cc1", "growth inhibition", -4.66],
  ["Cc1ccc(S(=O)(=O)N(C)Cc2nc(-c3ccc(Br)cc3)no2)cc1", "growth inhibition", -3.27]
]}

input: // growth inhibition lookup, key: O=C(CN1CCOc2ccccc21)N1CCC(Cc2ccccc2)CC1
output: -3.59

input: // growth inhibition lookup, key: Cc1ccc(NC(=O)C2CCN(S(=O)(=O)c3cccc4cccnc34)CC2)nc1
output: 2.12

input: // growth inhibition lookup, key: COC(=O)c1sc(NC(=O)C2CCCCC2C(=O)O)c(C(=O)OC)c1C (configuration not stated)
output: -5.95

input: // growth inhibition lookup, key: Cc1cc2cc(CNC(=O)Cc3cccs3)ccc2n1C
output: -14.6
